B1: Hairpin Ribozyme (parent)
chain: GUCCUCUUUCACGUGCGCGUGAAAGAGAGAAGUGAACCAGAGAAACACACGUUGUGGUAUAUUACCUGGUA

Variants of: B1
Test: self-cleavage, relative activity (ratio to wild type); higher = more cleavage; co-transcriptional
Overview of recorded self-cleavage for various variants
Answer with a bare number; do not write a unit.

For orientation, consider the following solved cases.
construct_sequence: GUCCUCUUUCACGUGCGCUUGAAAGAGAGAAGUGAACCAGAGAUACACACGUUGUGGUAUAUUACCUGGUA [G19U A44U]
quantitative_readout: 0.124
//
construct_sequence: GUCCUCUUUCACGUGCGCGUGAAAGAGAGAAGUGAACCAGGGAAACACACGUUUUGGUAUAUUACCUGGUA [A41G G54U]
quantitative_readout: 0.577
//
construct_sequence: GUCCUCUUUCACGUGCGCGUGAAAGUGAGAAGUGAACCAUAGAAACACACGUUGUGGUAUAUUACCUGGUA [A26U G40U]
quantitative_readout: 0.131
//
construct_sequence: GUCUUCUUUCACGUGCGCGUGAAAGAGAGAAGUGAACCAGAGAAACAGACGUUGUGGUAUAUUACCUGGUA [C4U C48G]
quantitative_readout: 0.123
//
construct_sequence: GUCCUCUUUGAGGUGCGCGUGAAAGAGAGAAGUGAACCAGAGAAACACACGUUGUGGUAUAUUACCUGGUA [C10G C12G]
quantitative_readout: 0.477

Request: Look up and report measured self-cleavage for this entry: GUCCUCUUUCACGUGCGCGUGAAAGAGAGAAGUGACCCAGAGAAACACACGUUGUGGUGUAUUACCUGGUA [A36C A59G]
Result: 0.203

Request: Look up and report measured self-cleavage for this entry: GUCCUCUUUCACGUGCCCGUGAAAGAGAGAAGUGAACCAGAGAAACACACGUUGUGUUAUAUUACCUGGUA [G17C G57U]
Result: 0.222

Request: Look up and report measured self-cleavage for this entry: GUCCUCUUUCACGUGCGCGUGAAAGAUAGAAGUGAACCAGAGAAACACACGUUGUGGUAUUUUACCUGGUA [G27U A61U]
Result: 0.107
